Origin of measurements: ChEMBL document CHEMBL1828503

System: Mycobacterium tuberculosis
measurement_notes: Antimicrobial activity against Mycobacterium tuberculosis H37Rv ATCC 27294 assessed as growth inhibition after 7 days by resazurin assay
Assay type: functional
Parameter growth inhibition (GI): see the listing below.
The response must be a number in % with no trailing unit.

Illustrative cases are given below, each with its answer.
molecule | value
COc1ccc2nc(C)cc(N3CC(CNC(=O)C4CC4)OC3=O)c2c1 (centres undefined) | 90
COc1ccc2nc(C)cc(N3CC(CNC(=O)c4ccc(Cl)cc4)OC3=O)c2c1 (centres undefined) | 85
COc1ccc2nc(C)cc(NC(=O)CN3CC(CN(C)C)OC3=O)c2c1 (centres undefined) | 95
COc1ccc2nc(C)cc(NC(=O)CN3CC(CN4CCC(C)CC4)OC3=O)c2c1 (centres undefined) | 0

Input line: Answer with reported growth inhibition (GI) of COc1ccc(C(=O)NCC2CN(c3cc(C)nc4ccc(OC)cc34)C(=O)O2)cc1 (centres undefined)
Output line: 85

Input line: Answer with reported growth inhibition (GI) of COc1ccc2nc(C)cc(NC(=O)CN3CC(CNCC4CCCCC4)OC3=O)c2c1 (centres undefined)
Output line: 0

Input line: Answer with reported growth inhibition (GI) of COc1ccc2nc(C)cc(N3CC(CNC(=O)C4CCC4)OC3=O)c2c1 (centres undefined)
Output line: 85

Input line: Answer with reported growth inhibition (GI) of CCN1CCN(CC2CN(CC(=O)Nc3cc(C)nc4ccc(OC)cc34)C(=O)O2)CC1 (centres undefined)
Output line: 85

Input line: Answer with reported growth inhibition (GI) of COc1ccc2nc(C)cc(NC(=O)CN3CC(CNC4CC4)OC3=O)c2c1 (centres undefined)
Output line: 90

* * *

Parameter MIC: see the listing below.
Tested on: Mycolicibacterium fortuitum
measurement_notes: Antimicrobial activity against Mycobacterium fortuitum ATCC 19542 after 7 days by resazurin assay
Type: functional
condition_parameters: ATCC 19542, 168 h
The response must be a number in µg/mL with no trailing unit.

Illustrative cases are given below, each with its answer.
compound | measurement_units | MIC
CO[C@H]1/C=C/O[C@@]2(C)Oc3c(C)c(O)c4c(O)c(c(/C=N/N5CCN(C)CC5)c(O)c4c3C2=O)NC(=O)/C(C)=C\C=C\[C@H](C)[C@H](O)[C@@H](C)[C@@H](O)[C@@H](C)[C@H](OC(C)=O)[C@@H]1C [RIFAMPIN] | µg/mL | 1.5
COc1ccc2nc(C)cc(N3CC(CNC(=O)c4ccc(Cl)cc4)OC3=O)c2c1 (stereo not drawn) | µg/mL | 100
COc1ccc(C(=O)NCC2CN(c3cc(C)nc4ccc(OC)cc34)C(=O)O2)c(C)c1 (stereo not drawn) | µg/mL | 100
CCc1ccc(C(=O)NCC2CN(c3cc(C)nc4ccc(OC)cc34)C(=O)O2)cc1 (stereo not drawn) | µg/mL | 100
COc1ccc2nc(C)cc(NC(=O)CN3CC(CN4CCCC4)OC3=O)c2c1 (stereo not drawn) | µg/mL | 100

Input line: Answer with reported MIC of COc1ccc2nc(C)cc(NC(=O)CN3CC(CN4CCCCC4)OC3=O)c2c1 (stereo not drawn)
Output line: 100

Input line: Answer with reported MIC of COc1ccc2nc(C)cc(N3CC(CNC(=O)C4CCC4)OC3=O)c2c1 (stereo not drawn)
Output line: 100

Input line: Answer with reported MIC of COc1ccc2nc(C)cc(N3CC(CNC(=O)c4ccc(F)cc4)OC3=O)c2c1 (stereo not drawn)
Output line: 10

Input line: Answer with reported MIC of COc1ccc2nc(C)cc(NC(=O)CN3CC(CN4CCN(C(C)(C)C)CC4)OC3=O)c2c1 (stereo not drawn)
Output line: 100

Input line: Answer with reported MIC of COc1ccc2nc(C)cc(NC(=O)CN3CC(CN4CCN(C(C)C)CC4)OC3=O)c2c1 (stereo not drawn)
Output line: 100

Input line: Answer with reported MIC of CCN1CCN(CC2CN(CC(=O)Nc3cc(C)nc4ccc(OC)cc34)C(=O)O2)CC1 (stereo not drawn)
Output line: 100

Input line: Answer with reported MIC of COc1ccc2nc(C)cc(N3CC(CNC(=O)c4ccccc4F)OC3=O)c2c1 (stereo not drawn)
Output line: 10
